target: Insulin-like growth factor 2 receptor (IGF-1IR, cation-independent mannose-6-phosphate receptor, CI-MPR; hIGF-IIR) (Homo sapiens, UniProt P11717); experiment: HTRF-based ternary complex inhibition assay for relative affinity of IGF-IIR ligands; conditions: competition with MTAC probe for His-tagged hIGF-IIR; biotinylated IgG1; apparent binding affinity; read-out: TCF INH (HTRF) IC50
VALUE KIND: IC50

[
  {
    "MOLECULE": "CP(=O)(O)CC[C@H]1O[C@H](Oc2ccccc2)[C@@H](O)[C@@H](O)[C@@H]1O [Compound A44]",
    "IC50": "10 to 100 µM"
  },
  {
    "MOLECULE": "CO[C@@H]1O[C@H](CCS(=O)(=O)Nc2ncccn2)[C@@H](O)[C@H](O)[C@@H]1O [Compound A8]",
    "IC50": "10 to 100 µM"
  },
  {
    "MOLECULE": "O=P(O)(O)CC[C@H]1OC(c2cc3c(cc2O)Cc2ccccc2-3)[C@@H](O)[C@@H](O)[C@@H]1O (stereo partly drawn) [Compound A15]",
    "IC50": "< 10 µM"
  },
  {
    "MOLECULE": "O=P(O)(O)C1CC1[C@H]1O[C@H](Oc2ccccc2)[C@@H](O)[C@@H](O)[C@@H]1O (stereo partly drawn) [Compound A43]",
    "IC50": "10 to 100 µM"
  },
  {
    "MOLECULE": "C[Si](C)(C)C#C[C@H]1O[C@H](CCP(=O)(O)O)[C@@H](O)[C@H](O)[C@@H]1O [Compound A18]",
    "IC50": "< 10 µM"
  }
]

Provide the reported IC50 of each entry below, same order.
1. COc1ccc(OC2O[C@H](CCP(=O)(O)CC(F)(F)F)[C@@H](O)[C@H](O)[C@@H]2O)cc1 (stereo partly drawn) [Compound A80]
2. COC(=O)c1ccc(O[C@H]2O[C@H](CNc3c(O)c(=O)c3=O)[C@@H](O)[C@H](O)[C@@H]2O)cc1 [Compound A7]
3. CC(=O)N1C[C@@H](O)[C@@H](O)[C@H](O)[C@H]1CCP(=O)(O)O [Compound A61]
4. CC(C)(C)OC(=O)N1CCC(n2cc([C@H]3O[C@H](CCP(=O)(O)O)[C@@H](O)[C@H](O)[C@@H]3O)nn2)CC1 [Compound A85]
5. COCP(=O)(O)CC[C@H]1O[C@H](Oc2ccccc2)[C@@H](O)[C@@H](O)[C@@H]1O [Compound A45]

Result:
["10 to 100 µM", "100 to 300 µM", "10 to 100 µM", "< 10 µM", "10 to 100 µM"]
